biological target: NRAS Q61R (Homo sapiens, UniProt P01111+P62937, Q61R); test: Ras-Raf disruption / FRET / MOA assay (BRAF RBD); type: biochemical
Sequence (P01111 whole entry Q61R): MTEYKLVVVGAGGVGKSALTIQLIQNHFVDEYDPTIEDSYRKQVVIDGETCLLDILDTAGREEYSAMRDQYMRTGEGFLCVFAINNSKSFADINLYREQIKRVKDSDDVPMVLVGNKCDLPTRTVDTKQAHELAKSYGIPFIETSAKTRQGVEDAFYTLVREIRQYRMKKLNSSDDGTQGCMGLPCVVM
Sequence (P62937 whole entry): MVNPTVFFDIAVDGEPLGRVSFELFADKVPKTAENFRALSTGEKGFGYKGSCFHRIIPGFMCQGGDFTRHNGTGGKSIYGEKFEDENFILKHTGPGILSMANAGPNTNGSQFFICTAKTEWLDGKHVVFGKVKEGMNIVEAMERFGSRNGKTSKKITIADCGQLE
pIC50: −log10 of the molar value.
ENDPOINT NAME: pIC50

// solved cases for pIC50 follow
[[record]]
compound = "CCn1c(-c2cc(C3CCN(C)CC3)cnc2[C@H](C)OC)c2c3cc(ccc31)-c1cc(O)cc(c1)C[C@H](NC(=O)[C@H](C1CCCC1)N(C)C(=O)CN(C)C(=O)[C@H]1CN1)C(=O)N1CCC[C@H](N1)C(=O)OCC(C)(C)C2 [Example 230]"
endpoint_name = "pIC50"
meas_value = "7.00 to 8.00"

[[record]]
compound = "CCn1c(-c2cccnc2[C@H](C)OC)c2c3cc(ccc31)-c1cc(O)cc(c1)C[C@H](NC(=O)[C@H](C(C)C)N(C)C(=O)CN(C)C(=O)[C@@H]1N[C@@H]1C(F)(F)F)C(=O)N1CCC[C@H](N1)C(=O)OCC(C)(C)C2 [Example 258]"
endpoint_name = "pIC50"
meas_value = "7.00 to 8.00"

[[record]]
compound = "CCn1c(-c2cccnc2[C@H](C)OC)c2c3cc(ccc31)-c1cc(O)cc(c1)C[C@H](NC(=O)[C@H](C1CCCC1)N(C)C(=O)[C@@H](C)N(C)C(=O)[C@@H]1N[C@@H]1C1CC1)C(=O)N1CCC[C@H](N1)C(=O)OCC(C)(C)C2 [Example 327]"
endpoint_name = "pIC50"
meas_value = "< 5.00"


Now, please, on to the next compound.
Which pIC50 value belongs to CCn1c(-c2cccnc2[C@H](C)OC)c2c3cc(ccc31)-c1cc(O)cc(c1)C[C@H](NC(=O)[C@H](C(C)C)N(C)C(=O)CN(C)C(=O)[C@H]1N[C@H]1C1CCC1)C(=O)N1CCC[C@H](N1)C(=O)OCC(C)(C)C2 [Example 288] ?
6.00 to 7.00

Taken from patent US20230233569A1.
